target: UniProt Q99558; test: radiometric filter-binding kinase assay, Kinase HotSpot; details: compound 0.5 µM; ATP 10 µM
Sequence (Q99558 whole entry, looked up): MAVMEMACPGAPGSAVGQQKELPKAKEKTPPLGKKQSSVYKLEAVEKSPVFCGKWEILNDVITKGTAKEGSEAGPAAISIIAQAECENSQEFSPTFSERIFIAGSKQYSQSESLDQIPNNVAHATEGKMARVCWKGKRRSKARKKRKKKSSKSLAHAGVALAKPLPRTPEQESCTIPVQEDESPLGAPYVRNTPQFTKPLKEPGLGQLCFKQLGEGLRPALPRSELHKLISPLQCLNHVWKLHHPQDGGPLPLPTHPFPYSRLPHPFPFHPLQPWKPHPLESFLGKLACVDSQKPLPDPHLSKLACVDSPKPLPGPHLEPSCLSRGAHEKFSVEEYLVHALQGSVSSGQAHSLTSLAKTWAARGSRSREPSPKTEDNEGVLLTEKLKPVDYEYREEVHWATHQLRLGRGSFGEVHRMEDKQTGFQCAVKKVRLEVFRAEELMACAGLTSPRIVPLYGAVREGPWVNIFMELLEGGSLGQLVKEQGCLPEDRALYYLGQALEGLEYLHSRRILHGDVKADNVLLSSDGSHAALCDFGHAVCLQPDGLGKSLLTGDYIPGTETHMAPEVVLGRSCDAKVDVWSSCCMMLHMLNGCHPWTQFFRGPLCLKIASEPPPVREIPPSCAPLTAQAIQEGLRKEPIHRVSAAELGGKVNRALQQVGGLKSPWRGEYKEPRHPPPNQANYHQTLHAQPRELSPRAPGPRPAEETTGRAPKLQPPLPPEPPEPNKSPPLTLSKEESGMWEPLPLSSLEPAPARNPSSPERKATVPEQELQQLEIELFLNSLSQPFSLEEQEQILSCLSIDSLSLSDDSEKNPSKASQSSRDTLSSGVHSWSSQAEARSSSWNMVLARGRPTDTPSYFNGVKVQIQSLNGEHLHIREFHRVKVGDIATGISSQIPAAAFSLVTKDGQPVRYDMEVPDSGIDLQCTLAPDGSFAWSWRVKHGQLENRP
The entries below come with measured residual activity values attached.
Report only the number, with the unit % understood.

# count of solved cases: 5
Any idea what residual activity was measured for COc1cc2ncnc(Nc3ccc(OCc4ccccc4)cc3)c2cc1OC ?
84.4

// residual activity lookup, key: Fc1ccc(-c2nc3n(c2-c2ccncc2)CCS3)cc1
103

So what does the record say about residual activity for Ic1cccc(CSc2nnc(-c3ccncc3)o2)c1 ?
88.3

Please report the recorded residual activity for C[C@@H]1CCN(C(=O)CC#N)C[C@@H]1N(C)c1ncnc2[nH]ccc12 .
107

What value of residual activity has been reported for the following molecule? CC(C)(C)c1cc(C=C(C#N)C#N)cc(Br)c1O
97.3

More entries:
I am curious: what residual activity value has been reported for CN(C)S(=O)(=O)c1ccc2c(c1)/C(=C/c1cc3c([nH]1)CCCC3)C(=O)N2 ?
94.6

Which residual activity is listed for CN(C)c1ccc(/C=C2\C(=O)Nc3ccccc32)cc1 ?
67.7

For the molecule shown here, COc1ccc2c(c1)/C(=C/c1cnc[nH]1)C(O)=N2 , give the reported residual activity.
96.9

Given COc1cc2ncnc(Nc3ccc(Oc4ccccc4)cc3)c2cc1OC , state its recorded residual activity.
93

Fill in the blank: the reported residual activity of COc1ccc2c(c1)c(C1=C(c3c[nH]c4ccccc34)C(=O)NC1=O)cn2CCCN(C)C is ____.
79.2

# residual activity lookup, item Cc1cccc(-c2nc(C(C)(C)C)[nH]c2-c2ccc3c(c2)OCO3)n1
109

###

target: UniProt Q9UM73; assay: radiometric filter-binding kinase assay, Kinase HotSpot; settings: compound 0.5 µM; ATP 10 µM
Sequence (Q9UM73 whole entry, looked up): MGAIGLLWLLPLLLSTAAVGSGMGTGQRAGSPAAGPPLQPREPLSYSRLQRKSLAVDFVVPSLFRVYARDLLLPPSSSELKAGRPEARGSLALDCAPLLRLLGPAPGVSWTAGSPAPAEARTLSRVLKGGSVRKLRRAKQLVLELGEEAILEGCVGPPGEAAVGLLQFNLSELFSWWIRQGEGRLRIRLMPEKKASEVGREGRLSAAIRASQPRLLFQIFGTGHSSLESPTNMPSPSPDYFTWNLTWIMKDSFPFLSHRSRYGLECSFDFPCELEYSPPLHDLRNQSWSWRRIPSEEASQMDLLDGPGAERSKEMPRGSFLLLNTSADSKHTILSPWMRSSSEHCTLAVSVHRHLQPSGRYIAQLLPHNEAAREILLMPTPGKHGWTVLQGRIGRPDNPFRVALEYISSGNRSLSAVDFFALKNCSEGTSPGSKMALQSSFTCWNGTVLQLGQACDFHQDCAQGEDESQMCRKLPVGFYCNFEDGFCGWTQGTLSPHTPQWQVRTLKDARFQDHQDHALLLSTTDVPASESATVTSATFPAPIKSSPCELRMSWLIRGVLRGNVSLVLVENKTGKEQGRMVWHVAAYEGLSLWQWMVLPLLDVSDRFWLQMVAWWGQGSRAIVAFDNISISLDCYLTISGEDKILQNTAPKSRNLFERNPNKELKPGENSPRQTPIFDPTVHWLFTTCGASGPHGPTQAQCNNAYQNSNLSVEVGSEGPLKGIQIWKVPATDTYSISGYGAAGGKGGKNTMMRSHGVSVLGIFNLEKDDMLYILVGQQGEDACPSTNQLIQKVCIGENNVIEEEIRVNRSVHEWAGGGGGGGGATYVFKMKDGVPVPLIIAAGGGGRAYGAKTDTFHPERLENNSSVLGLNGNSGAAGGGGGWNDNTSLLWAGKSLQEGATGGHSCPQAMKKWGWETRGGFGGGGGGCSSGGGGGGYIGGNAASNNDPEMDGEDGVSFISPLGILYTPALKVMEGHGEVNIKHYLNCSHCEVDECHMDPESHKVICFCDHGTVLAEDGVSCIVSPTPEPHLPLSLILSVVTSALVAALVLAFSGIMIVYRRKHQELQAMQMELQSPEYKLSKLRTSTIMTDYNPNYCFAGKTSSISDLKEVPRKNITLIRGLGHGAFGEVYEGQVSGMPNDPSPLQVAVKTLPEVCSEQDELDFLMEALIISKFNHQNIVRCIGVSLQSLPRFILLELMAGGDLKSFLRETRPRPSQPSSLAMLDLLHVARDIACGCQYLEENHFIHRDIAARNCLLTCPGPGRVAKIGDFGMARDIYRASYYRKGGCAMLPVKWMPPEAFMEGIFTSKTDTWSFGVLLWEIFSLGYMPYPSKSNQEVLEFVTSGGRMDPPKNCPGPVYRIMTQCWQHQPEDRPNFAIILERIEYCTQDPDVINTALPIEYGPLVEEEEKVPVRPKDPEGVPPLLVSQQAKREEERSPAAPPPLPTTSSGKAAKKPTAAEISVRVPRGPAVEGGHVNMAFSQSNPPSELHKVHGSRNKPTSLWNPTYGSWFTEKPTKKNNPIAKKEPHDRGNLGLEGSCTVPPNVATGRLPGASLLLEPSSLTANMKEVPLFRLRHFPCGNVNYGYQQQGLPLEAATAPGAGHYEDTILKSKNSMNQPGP
metric: residual activity (%)
Please respond with the number in % and leave the unit unwritten.

// known answers, use as guide
What measured residual activity goes with COc1ccc2c(c1)/C(=C/c1cnc[nH]1)C(O)=N2 ?
112

residual activity lookup needed for CN(C)S(=O)(=O)c1ccc2c(c1)/C(=C/c1cc3c([nH]1)CCCC3)C(=O)N2 , thanks.
43.6

// residual activity lookup, key: Cn1c2ccccc2c2c3c(c4c5ccccc5n(CCC#N)c4c21)CNC3=O
12.2

Name the reported residual activity value associated with the compound Cc1nc(-c2ccccc2)c(-c2ccncc2)o1
108

Next:
I'd like to know its residual activity. The compound in question is CS(=O)(=O)CCNCc1ccc(-c2ccc3ncnc(Nc4ccc(OCc5cccc(F)c5)c(Cl)c4)c3c2)o1
104

###

molecular target: UniProtKB P17252; assay: radiometric filter-binding kinase assay, Kinase HotSpot; conditions: compound 0.5 µM; ATP 10 µM
Overview of reported residual activity across a group of molecules:
Could you give me the number in %? Just the number is fine.

// below: answered molecules
residual activity lookup needed for COc1cc2ncnc(Nc3ccc(Oc4ccccc4)cc3)c2cc1OC , thanks.
101

Would you mind telling me what residual activity value was observed for Cc1nc(-c2ccccc2)c(-c2ccncc2)o1 ?
98.3

I would be grateful if you could share the reported residual activity for Fc1ccc(-c2nc3n(c2-c2ccncc2)CCS3)cc1 .
113

What value of measured residual activity is listed for Cc1cncc2cccc(S(=O)(=O)N3CCCN(C(=O)CN)C[C@H]3C)c12 ?
109

// lookup residual activity for COc1ccc(S(=O)(=O)N(CCO)c2ccccc2CN(C)C/C=C/c2ccc(Cl)cc2)cc1
98.2

Continuing:
Recorded residual activity of Ic1cccc(CSc2nnc(-c3ccncc3)o2)c1 , please.
123

Requested read-out: residual activity. Entry: N#Cc1c[nH]c2c[nH]/c(=N\Cc3cccnc3)cc2/c1=N\c1ccc(F)c(Cl)c1
89.7

What value of measured residual activity is listed for COc1ccc2c(c1)/C(=C/c1cnc[nH]1)C(O)=N2 ?
91.3

Which value of residual activity has been reported for O=C1NC(=O)c2c1c1c3ccccc3[nH]c1n1cncc21 in the records?
66.5

###

test system: MAP2K6 (human), P52564 [S207E/T211E]; experiment: radiometric filter-binding kinase assay, Kinase HotSpot; settings: compound 0.5 µM; ATP 10 µM
Sequence (P52564 whole entry S207E/T211E, looked up): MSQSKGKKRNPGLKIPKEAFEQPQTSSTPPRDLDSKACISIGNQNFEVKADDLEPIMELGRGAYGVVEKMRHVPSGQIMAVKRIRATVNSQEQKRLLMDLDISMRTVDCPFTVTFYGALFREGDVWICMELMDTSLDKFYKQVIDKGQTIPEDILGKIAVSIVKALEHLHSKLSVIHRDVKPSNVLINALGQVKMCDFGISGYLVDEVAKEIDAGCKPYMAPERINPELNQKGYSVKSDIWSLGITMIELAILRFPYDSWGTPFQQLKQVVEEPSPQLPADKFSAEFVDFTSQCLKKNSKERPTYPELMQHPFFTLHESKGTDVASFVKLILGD
Below is a list of entries, each paired with its recorded residual activity value.
Your answer is read as %, so omit the unit and give the number.

Requested field: residual activity. Item: COc1cc2c(N3CCN(C(=O)Nc4ccc(OC(C)C)cc4)CC3)ncnc2cc1OCCCN1CCCCC1
102

New cases:
Using the record for O=c1cc(N2CCNCC2)oc2c(-c3ccccc3)cccc12 , report its residual activity.
96.2

Quick check: residual activity of COc1cc2nccc(Oc3ccc(NC(=S)NC(=O)c4ccccc4C)cc3)c2cc1OC ?
94.9

// query residual activity value for entry CC(C)N(CCC(=O)c1ccc2ccccc2c1)Cc1ccccc1
93.2

Endpoint output: residual activity of O=C(Nc1cccc(Nc2cc(Nc3cccc(C(F)(F)F)c3)ncn2)c1)C1CC1 . Value?
108

Find the recorded residual activity belonging to COc1ccc(-c2cnc3c(-c4ccsc4)cnn3c2)cc1 and report it.
95.9

Query (compound): O=C(NC(NC(=S)Nc1ccc(F)c([N+](=O)[O-])c1)C(Cl)(Cl)Cl)C(c1ccccc1)c1ccccc1 (configuration not stated) ; field requested: residual activity
107

Find the recorded residual activity belonging to O=C(c1ccccc1)c1ccc(N2CCOCC2)cc1O and report it.
93.5

Please look up its residual activity: CNc1cc2c(Nc3cccc(Br)c3)ncnc2cn1
94.5

###

# Lookup of reported residual activity keyed by entry
target: NUAK1 (human) (UniProt O60285); experiment: radiometric filter-binding kinase assay, Kinase HotSpot; settings: compound 0.5 µM; ATP 10 µM
Sequence (O60285 whole entry, looked up): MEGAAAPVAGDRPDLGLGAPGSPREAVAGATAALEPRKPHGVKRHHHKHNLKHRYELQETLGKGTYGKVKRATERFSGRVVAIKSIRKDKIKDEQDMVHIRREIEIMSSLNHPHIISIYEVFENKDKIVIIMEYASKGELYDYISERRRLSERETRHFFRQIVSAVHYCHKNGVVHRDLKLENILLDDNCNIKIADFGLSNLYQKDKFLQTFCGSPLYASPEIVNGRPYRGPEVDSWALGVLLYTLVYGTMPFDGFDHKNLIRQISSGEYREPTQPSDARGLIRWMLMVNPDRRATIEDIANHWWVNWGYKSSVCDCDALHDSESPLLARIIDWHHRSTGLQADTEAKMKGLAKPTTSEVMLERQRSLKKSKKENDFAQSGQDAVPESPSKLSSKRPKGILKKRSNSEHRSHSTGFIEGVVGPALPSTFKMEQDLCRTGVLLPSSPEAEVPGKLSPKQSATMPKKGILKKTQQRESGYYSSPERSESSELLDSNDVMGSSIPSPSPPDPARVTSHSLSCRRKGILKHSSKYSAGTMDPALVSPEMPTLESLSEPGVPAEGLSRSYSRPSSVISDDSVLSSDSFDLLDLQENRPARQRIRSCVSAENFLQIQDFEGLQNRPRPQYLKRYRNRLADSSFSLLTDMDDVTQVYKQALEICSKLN
Express it in %; write the number only.

// solved cases for residual activity follow
What does the record list as residual activity for COc1ccc2c(c1)/C(=C/c1cnc[nH]1)C(O)=N2 ?
8.87

Request the reported residual activity associated with C[C@@H]1CCN(C(=O)CC#N)C[C@@H]1N(C)c1ncnc2[nH]ccc12
71.2

Name the reported residual activity value associated with the molecule Cn1c2ccccc2c2c3c(c4c5ccccc5n(CCC#N)c4c21)CNC3=O
3.86

What does the data say about its residual activity? Entry: COc1ccc2c(c1)c(C1=C(c3c[nH]c4ccccc34)C(=O)NC1=O)cn2CCCN(C)C
32.2

# query: residual activity of entry CCCCc1c(-c2ccc(OC)cc2)[nH]c2nccnc12
25

For the molecule N#Cc1c[nH]c2c[nH]/c(=N\Cc3cccnc3)cc2/c1=N\c1ccc(F)c(Cl)c1 , what residual activity is on record?
103

***
// residual activity lookup, key: c1ccc2c(-c3ccncc3)c[nH]c2c1
94.8

So what does the record say about residual activity for O=C1NC(=O)c2c1c1c3ccccc3[nH]c1n1cncc21 ?
12.1

# get_value(readout='residual activity', item= N#C/C(=C\c1ccc(O)c(O)c1)C(=O)NCc1ccccc1 )
90

Quick check: residual activity of COc1cc(Nc2c(C#N)cnc3cc(OCCCN4CCN(C)CC4)c(OC)cc23)c(Cl)cc1Cl ?
11.4

Request the reported residual activity associated with O=C1c2ccccc2-c2nc3nnnn3nc21
89.8

Name the reported residual activity value associated with the molecule O=C1C(Cl)=C(N2C(=O)CCC2=O)C(=O)c2ccccc21
105

So what does the record say about residual activity for CN(C)CCCn1cc(C2=C(c3c[nH]c4ccccc34)C(=O)NC2=O)c2ccccc21 ?
25.9

Give the measured residual activity of Cc1nc(-c2ccccc2)c(-c2ccncc2)o1 .
100

Tell me the measured residual activity of COc1cc2ncnc(Nc3ccc(Oc4ccccc4)cc3)c2cc1OC , please.
105

Give its residual activity value. Item: Cc1cccc(-c2nc(C(C)(C)C)[nH]c2-c2ccc3c(c2)OCO3)n1
97.3

Please look up its residual activity: Fc1ccc(-c2nc3n(c2-c2ccncc2)CCS3)cc1
98.6

Please report the recorded residual activity for COc1ccc(S(=O)(=O)N(CCO)c2ccccc2CN(C)C/C=C/c2ccc(Cl)cc2)cc1 .
96.5

# lookup: residual activity of CS(=O)(=O)CCNCc1ccc(-c2ccc3ncnc(Nc4ccc(OCc5cccc(F)c5)c(Cl)c4)c3c2)o1
108

Look up residual activity for this molecule: Ic1cccc(CSc2nnc(-c3ccncc3)o2)c1
95.1

Sample COc1ccc(C(=O)Nc2sc3c(c2C(N)=O)CCCC3)cc1OC — what was its residual activity?
81.8

Looking for the measured residual activity of CO[C@@H]1[C@H](N(C)C(=O)c2ccccc2)C[C@H]2O[C@]1(C)n1c3ccccc3c3c4c(c5c6ccccc6n2c5c31)C(=O)NC4 , can you help?
2.71

I'd like to know its residual activity. The molecule in question is CC(C)(C)c1cc(C=C(C#N)C#N)cc(Br)c1O
95.4

Would you mind telling me what residual activity value was observed for NC(=O)c1cccc(-c2cc(Nc3ccc(OC(F)(F)F)cc3)ncn2)c1 ?
96.7

Need residual activity of CN(C)S(=O)(=O)c1ccc2c(c1)/C(=C/c1cc3c([nH]1)CCCC3)C(=O)N2 , thanks.
10.9

I'd like to know its residual activity. The molecule in question is CN(C)c1ccc(/C=C2\C(=O)Nc3ccccc32)cc1
80.4
